target-entity: Rat NHE-3 (Rattus norvegicus)
Construct: expressed in transfected cells; host or cells: Opossum kidney (OK) cells (ATCC), transfected by electroporation
Sequence (P26433 29-831): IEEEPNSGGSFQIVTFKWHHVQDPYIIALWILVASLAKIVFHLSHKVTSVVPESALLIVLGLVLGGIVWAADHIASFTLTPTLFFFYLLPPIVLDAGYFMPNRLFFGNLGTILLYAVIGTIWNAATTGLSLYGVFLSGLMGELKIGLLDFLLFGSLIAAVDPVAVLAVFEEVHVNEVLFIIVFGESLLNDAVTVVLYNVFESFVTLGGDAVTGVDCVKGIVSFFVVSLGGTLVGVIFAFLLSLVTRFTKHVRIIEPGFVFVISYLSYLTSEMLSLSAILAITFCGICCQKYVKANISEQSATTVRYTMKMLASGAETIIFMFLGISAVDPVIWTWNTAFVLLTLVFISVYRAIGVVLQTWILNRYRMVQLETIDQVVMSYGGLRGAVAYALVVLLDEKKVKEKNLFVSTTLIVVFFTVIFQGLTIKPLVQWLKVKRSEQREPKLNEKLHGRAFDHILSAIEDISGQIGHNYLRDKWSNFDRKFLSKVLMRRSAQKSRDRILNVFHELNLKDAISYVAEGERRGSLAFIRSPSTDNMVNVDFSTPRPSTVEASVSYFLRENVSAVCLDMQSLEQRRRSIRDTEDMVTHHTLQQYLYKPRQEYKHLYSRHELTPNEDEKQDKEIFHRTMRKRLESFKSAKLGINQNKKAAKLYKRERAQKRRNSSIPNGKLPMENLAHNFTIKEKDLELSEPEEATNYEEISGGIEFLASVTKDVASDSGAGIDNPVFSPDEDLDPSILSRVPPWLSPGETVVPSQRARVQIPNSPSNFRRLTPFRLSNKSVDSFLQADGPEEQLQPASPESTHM
measurement-notes: Cell-based assay of NHE-3 activity (rat NHE-3 prompt inhibition)
test-parameters: OK cells with rat NHE-3 gene, compound present during pH recovery; read-out: Rat NHE3 pIC50 (prompt) (converted)
List of IC50 values.
metric: IC50

structure_as_smiles=CN1Cc2c(Cl)cc(Cl)cc2[C@H](c2cccc(S(=O)(=O)NCCOCCOCCNC(=O)NCCN(CCNC(=O)NCCOCCOCCNS(=O)(=O)c3cccc([C@@H]4CN(C)Cc5c(Cl)cc(Cl)cc54)c3)C(=O)NCCCCCCCCCCCCNC(=O)N(CCNC(=O)NCCOCCOCCNS(=O)(=O)c3cccc([C@@H]4CN(C)Cc5c(Cl)cc(Cl)cc54)c3)CCNC(=O)NCCOCCOCCNS(=O)(=O)c3cccc([C@@H]4CN(C)Cc5c(Cl)cc(Cl)cc54)c3)c2)C1 metric=IC50 result="0.1 to 10 µM"
structure_as_smiles=CN1Cc2c(Cl)cc(Cl)cc2[C@H](c2cccc(S(=O)(=O)NCCOCCOCCNC(=O)CCC(CCC(=O)NCCOCCOCCNS(=O)(=O)c3cccc([C@@H]4CN(C)Cc5c(Cl)cc(Cl)cc54)c3)(CCC(=O)NCCOCCOCCNS(=O)(=O)c3cccc([C@@H]4CN(C)Cc5c(Cl)cc(Cl)cc54)c3)NC(N)=O)c2)C1 metric=IC50 result="0.1 to 10 µM"
